// provenance: ChEMBL document CHEMBL1149043

# System: Platelet
# protocol text: Inhibition of platelet activating factor-induced platelet aggregation in rabbit platelet assessed as aggregation at 300 uM treated 3 mins before platelet activating factor challenge by turbidimetric method
# Assay type: functional, Oryctolagus cuniculus
measured parameter: Platelet aggregation (%)
Answer in %, number only, no unit symbol.

Consider the following illustrative entries.
COC(=O)c1c(CC=C(C)C)c(O[C@@H]2O[C@H](CO)[C@@H](O)[C@H](O)[C@H]2O)c2ccccc2c1O[C@@H]1O[C@H](CO)[C@@H](O)[C@H](O)[C@H]1O	90.3
COC(=O)c1c2c(c3ccccc3c1O)OC(C)(C)C=C2	62.5
Cc1c(O[C@@H]2O[C@H](CO)[C@@H](O)[C@H](O)[C@H]2O[C@@H]2O[C@H](C)[C@@H](O)[C@H](O)[C@@H]2O)cc2c(c1O)C(=O)c1ccc(O)cc1C2=O	89.4
O=C1c2ccccc2C(=O)c2c1cc(O[C@@H]1O[C@H](CO[C@@H]3OC[C@@H](O)[C@H](O)[C@H]3O)[C@@H](O)[C@H](O)[C@H]1O)c(CO)c2O [LUCIDIN PRIMEVOROSIDE]	89.1
Cc1ccc2c(c1O)C(=O)c1ccccc1C2=O	82.3
O=C1c2ccccc2C(=O)c2c(O)cc(O)cc21	82.6
Cc1c(O)cc2c(c1O)C(=O)c1ccc(O)cc1C2=O	77.8
O=C1c2ccccc2C(=O)c2c(O)cc(O[C@@H]3O[C@H](CO)[C@@H](O)[C@H](O)[C@H]3O)cc21	65.5

// next item, Platelet aggregation requested
## Input Query the reported Platelet aggregation for Platelet; item: "CC(=O)O[C@H]1[C@H](O)[C@@H](CO)O[C@@H](Oc2cc3c(c(O)c2C)C(=O)c2ccc(O)cc2C3=O)[C@@H]1O[C@@H]1O[C@H](C)[C@@H](O)[C@H](O)[C@@H]1O"
## Output 81.5
